- Test system: A2780
- protocol-notes: Antitumor activity against human A2780 cells xenografted in BALB/c nu/nu mouse assessed as tumor growth inhibition at 50 mg/kg, iv administered 3 times a week for 2 weeks starting from 5 to 6 days post tumor inoculation relative to control
- Assay type: functional
- experimental-context: read-out: TGI
quantity-measured: inhibition in vivo at 50 mg/kg
# do not omit the unit; it follows the number

stdin: Query (molecule): CCNC(=O)c1noc(-c2cc(C(C)C)c(O)cc2O)c1-c1cn[nH]c1 ; field requested: inhibition in vivo at 50 mg/kg
stdout: 47.6%

stdin: Query (molecule): CCNC(=O)c1noc(-c2cc(C(C)C)c(O)cc2O)c1-c1ccn(C(C)C)n1 ; field requested: inhibition in vivo at 50 mg/kg
stdout: 49.8%

stdin: Query (molecule): CCNC(=O)c1noc(-c2cc(C(C)C)c(O)cc2O)c1-c1cc[nH]n1 ; field requested: inhibition in vivo at 50 mg/kg
stdout: 46.4%

stdin: Query (molecule): CCNC(=O)c1noc(-c2cc(C(C)C)c(O)cc2O)c1-c1cc(CN(CC)CC)no1 ; field requested: inhibition in vivo at 50 mg/kg
stdout: 12.8%

stdin: Query (molecule): CCNCc1cc(-c2c(C(=O)NCC)noc2-c2cc(C(C)C)c(O)cc2O)on1 ; field requested: inhibition in vivo at 50 mg/kg
stdout: 40.3%

Origin of measurements: ChEMBL document CHEMBL4627371
